TESTED_TARGET: Cruzipain (Trypanosoma cruzi) (UniProt P25779)
Sequence (P25779 123-467 limits assumed): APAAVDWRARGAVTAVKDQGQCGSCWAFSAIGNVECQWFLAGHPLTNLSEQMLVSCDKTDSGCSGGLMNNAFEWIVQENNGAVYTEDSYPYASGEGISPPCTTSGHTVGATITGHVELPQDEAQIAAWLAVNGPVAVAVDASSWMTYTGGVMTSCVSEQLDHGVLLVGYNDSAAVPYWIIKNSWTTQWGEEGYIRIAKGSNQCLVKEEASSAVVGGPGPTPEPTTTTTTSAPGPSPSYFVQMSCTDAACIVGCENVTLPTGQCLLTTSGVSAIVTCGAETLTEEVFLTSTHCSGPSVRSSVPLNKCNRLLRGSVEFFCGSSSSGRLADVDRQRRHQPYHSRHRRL
PROTOCOL: Inhibition of Trypanosoma cruzi cruzain at 100 uM using Z-FR-AMC as substrate measured every 5 secs for 10 mins by fluorimetry
ASSAY_METRIC: inhibition

>>> measured_result("O=C(O)[C@H](CS)n1cc(C(NCc2ccc3c(c2)OCO3)C2CCCCC2)nn1 (stereo not given in full)")
"13%"
>>> measured_result("CCOC(=O)[C@H](CS)n1cc(C(NCc2ccc3c(c2)OCO3)C2CCCCC2)nn1 (stereo not given in full)")
"3%"
>>> measured_result("COC(=O)[C@H](CS)n1cc(C(NCc2ccc3c(c2)OCO3)C2CCCCC2)nn1 (stereo not given in full)")
"6%"
>>> measured_result("CC(C)[C@H](CS)n1cc(C(NCc2ccc3c(c2)OCO3)C2CCCCC2)nn1 (stereo not given in full)")
"6%"
>>> measured_result("SC[C@@H](Cc1ccccc1)n1cc(C(NCc2ccc3c(c2)OCO3)C2CCCCC2)nn1 (stereo not given in full)")
"12%"

* * *

PROTOCOL: Dissociation constant, pKa of the compound for carboxyl group by potentiometric titration analysis
Type: physicochemical
ASSAY_METRIC: pKa

>>> measured_result("O=C(O)[C@H](CSC(c1ccccc1)(c1ccccc1)c1ccccc1)n1cc(C(NCc2ccc3c(c2)OCO3)C2CCCCC2)nn1 (some centres not stated)")
3
>>> measured_result("O=C(O)[C@H](CS)n1cc(C(NCc2ccc3c(c2)OCO3)C2CCCCC2)nn1 (some centres not stated)")
4

* * *

# inhibition values compiled below
TESTED_TARGET: Cruzipain (Trypanosoma cruzi) (UniProt P25779)
PROTOCOL: Inhibition of Trypanosoma cruzi cruzain at 100 uM using Z-FR-AMC as substrate preincubated for 10 mins followed by substrate addition and measured every 5 secs for 10 mins by fluorimetry
TEST_SETTINGS: time 20.0 min
ASSAY_METRIC: inhibition (%)

>>> measured_result("CC(C)[C@H](CS)n1cc(C(NCc2ccc3c(c2)OCO3)C2CCCCC2)nn1 (stereo partly specified)")
43
>>> measured_result("COc1ccc(COC(=O)[C@H](CS)n2cc(C(NCc3ccc4c(c3)OCO4)C3CCCCC3)nn2)cc1 (stereo partly specified)")
28
>>> measured_result("SC[C@@H](Cc1ccccc1)n1cc(C(NCc2ccc3c(c2)OCO3)C2CCCCC2)nn1 (stereo partly specified)")
79
>>> measured_result("O=C(O)[C@H](CS)n1cc(C(NCc2ccc3c(c2)OCO3)C2CCCCC2)nn1 (stereo partly specified)")
100
>>> measured_result("CCOC(=O)[C@H](CS)n1cc(C(NCc2ccc3c(c2)OCO3)C2CCCCC2)nn1 (stereo partly specified)")
46
>>> measured_result("COC(=O)[C@H](CS)n1cc(C(NCc2ccc3c(c2)OCO3)C2CCCCC2)nn1 (stereo partly specified)")
53

* * *

PROTOCOL: Cytotoxicity against African green monkey Vero cells assessed as cell viability at 50 uM incubated for 96 hrs by resazurin dye based fluorescence analysis relative to control
Format: toxicity
TEST_SETTINGS: chlorocebus sabaeus, read-out: Activity
ASSAY_METRIC: viability at 96 h, 50 µM (%)

>>> measured_result("O=C(O)[C@H](CS)n1cc(C(NCc2ccc3c(c2)OCO3)C2CCCCC2)nn1 (stereo partly specified)")
80
